# TGT: T1, human Dectin-1 (biosensor tests of Tables 3, 4A and 9; construct not stated) (human, UniProt Q9BXN2 66-247, limits assumed)
# T1 construct: also called hDectin-1
# T1 sequence (looked up): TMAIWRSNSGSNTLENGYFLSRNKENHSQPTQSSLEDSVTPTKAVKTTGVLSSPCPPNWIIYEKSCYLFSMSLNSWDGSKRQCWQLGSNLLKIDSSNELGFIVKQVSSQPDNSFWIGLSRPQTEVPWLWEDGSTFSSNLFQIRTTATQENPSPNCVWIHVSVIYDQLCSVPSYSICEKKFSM
# EXPERIMENT_SUMMARY: Octet response; note: time not given here
REPORTED_ENDPOINT: X = 340
Write the value as a bare number.

{"BINDER": "2M24A.1.7 hFab (Fab, V domains shown, Fab; also called 2M24.1.7) VH: QVQLVQSGAEVKKPGASVKVSCKSSGYTFTDYYIHWVRQAPGQGLEWMGWINPNSGATNYAQKFQGRITMTRDTSISTAYLELSRLRSDDTAVFYCARNSGSYSFGYWGQGTLVTVSS VL: DIQMTQSPSSVSASVGDRVTITCRASQGISSWLAWYQQKPGKAPKLLIFGASSLQSGVPSRFSGSGSGTDFTLTVSSLQPEDFATYYCQQAFSFPFTFGPGTKVDIE", "X = 340": 0.51}

Kindly consider the entry below.
Q) I have this binder here, 2M24A.1.14 hFab (Fab, V domains shown, Fab; also called 2M24.1.14) VH: QVQLVQSGAEVKKPGASVKVSCKSSGYTFTDYYIHWVRQAPGQGLEWMGWINPNSGDTNYAQKFQGRITMTRDTSISTAYLELSRLRSDDTAVFYCARNSGSASFGYWGQGTLVTVSS VL: DIQMTQSPSSVSASVGDRVTITCRASQGISSWLAWYQQKPGKAPKLLIFGASSLQSGVPSRFSGSGSGTDFTLTVSSLQPEDFATYYCQQAYSFPFTFGPGTKVDIE , and I need its recorded X = 340.
A) 0.106
